melting point overview

Solved cases below.
>>> result("Cl.Cl.Cl.NCC1(COc2cncc(-c3cccc(N)c3)c2)CC1")
"185 to 190 °C"
>>> result("CNC1(CNc2cncc(-c3cccc(C(=O)O)c3)c2)CC1.Cl.Cl")
"248 to 250 °C"
>>> result("CCOC(=O)c1ccc(-c2cc(OCC3(NC)CC3)cnc2Cl)cc1.Cl.Cl")
"146 to 148 °C"
>>> result("Cl.Cl.NCC1(COc2cnc(F)c(-c3cccc(N)c3)c2)CC1")
"158 to 161 °C"
>>> result("Cl.Cl.NCC1(COc2cncc(-c3cccc(Cl)c3)c2)CC1")
"230 to 235 °C"

Would you kindly look at the next entry?
Report melting point, nothing else, for this compound: `Cc1ncc(OCC2(CN)CC2)cc1-c1ccc(Cl)cc1.Cl.Cl`
194 to 199 °C
